Record form. Attribute: pEC50. Fill in for each entry.
- assayed.system: hGABAA α2β3γ2 (Homo sapiens, UniProt P18507+P28472+P47869)
- Sequence (P47869 29-451): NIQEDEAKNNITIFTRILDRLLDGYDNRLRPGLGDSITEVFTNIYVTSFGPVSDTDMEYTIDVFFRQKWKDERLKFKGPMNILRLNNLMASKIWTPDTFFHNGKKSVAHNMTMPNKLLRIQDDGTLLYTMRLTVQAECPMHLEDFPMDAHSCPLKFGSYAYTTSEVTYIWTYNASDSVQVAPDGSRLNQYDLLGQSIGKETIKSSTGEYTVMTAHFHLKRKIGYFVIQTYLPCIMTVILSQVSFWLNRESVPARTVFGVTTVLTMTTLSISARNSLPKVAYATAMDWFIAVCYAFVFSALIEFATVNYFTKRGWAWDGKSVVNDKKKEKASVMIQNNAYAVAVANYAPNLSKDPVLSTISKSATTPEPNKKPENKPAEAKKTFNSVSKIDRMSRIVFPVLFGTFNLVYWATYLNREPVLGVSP
- Sequence (P28472 26-473): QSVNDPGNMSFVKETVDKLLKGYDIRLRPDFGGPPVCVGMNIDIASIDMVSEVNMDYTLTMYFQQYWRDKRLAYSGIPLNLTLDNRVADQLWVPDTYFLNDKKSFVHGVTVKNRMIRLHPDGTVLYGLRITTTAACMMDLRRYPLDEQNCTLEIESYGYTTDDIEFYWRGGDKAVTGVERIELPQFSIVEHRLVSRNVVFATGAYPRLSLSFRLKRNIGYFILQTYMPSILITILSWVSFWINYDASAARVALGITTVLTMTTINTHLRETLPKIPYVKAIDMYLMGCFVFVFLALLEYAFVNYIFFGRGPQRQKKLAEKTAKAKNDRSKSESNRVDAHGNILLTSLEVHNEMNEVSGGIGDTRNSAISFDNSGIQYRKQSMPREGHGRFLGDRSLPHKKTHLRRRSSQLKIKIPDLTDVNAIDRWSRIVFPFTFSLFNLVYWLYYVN
- Sequence (P18507 40-475): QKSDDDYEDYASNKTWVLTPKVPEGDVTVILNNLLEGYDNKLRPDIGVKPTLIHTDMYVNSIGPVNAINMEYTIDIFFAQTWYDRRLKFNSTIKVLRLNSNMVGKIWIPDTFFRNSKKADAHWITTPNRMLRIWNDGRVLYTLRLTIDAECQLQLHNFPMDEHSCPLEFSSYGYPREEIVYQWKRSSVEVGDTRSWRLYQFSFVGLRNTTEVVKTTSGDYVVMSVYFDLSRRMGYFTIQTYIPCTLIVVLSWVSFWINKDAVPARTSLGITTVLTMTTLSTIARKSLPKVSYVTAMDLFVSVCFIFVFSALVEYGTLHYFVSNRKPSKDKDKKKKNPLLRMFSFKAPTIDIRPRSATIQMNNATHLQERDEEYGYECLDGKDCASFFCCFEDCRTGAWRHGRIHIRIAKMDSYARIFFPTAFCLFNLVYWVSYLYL
- assay.info: hGABAA IonFlux HT PAM Assay, α2β3γ2
- Assay type: cell-based
- assay.setup: Estimated EC50, positive modulation of EC20 GABA current
One number for each entry, as −log10 of the molar value.

- compound: "CN1CCN(C(=O)O[C@H]2c3nccnc3C(=O)N2c2ccc(Cl)cn2)CC1 [Eszopiclone]"
  assayed.system: "hGABAA α2β3γ2 (Homo sapiens, UniProt P18507+P28472+P47869)"
  pEC50: 6.79

Input line: Looking for the measured pEC50 of CCN(CCN(C)C)C(=O)OC1c2nccnc2C(=O)N1c1ccc(Cl)cn1 (centres unmarked) [Compound 4] , can you help?
Output line: 5.24

Each recorded value in this set is attributed to patent US12084451B2.
